Assay: Relative dissociation constant evaluated against mouse Ribonucleotide Reductase (RR)
Outcome measure: Relative Kd

[I] CCC(=O)N[C@@H](Cc1ccccc1)C(=O)N[C@H](C(=O)N[C@@H](CC(C)C)C(=O)N[C@@H](CC(=O)O)C(=O)N[C@@H](C)C(=O)N[C@@H](CC(=O)O)C(=O)N[C@@H](Cc1ccccc1)C(=O)O)[C@H](C)O
[II] COc1ccc(CC(=O)N[C@@H](Cc2ccccc2)C(=O)N[C@H](C(=O)N[C@@H](CC(C)C)C(=O)N[C@@H](CC(=O)O)C(=O)N[C@@H](C)C(=O)N[C@@H](CC(=O)O)C(=O)N[C@@H](Cc2ccccc2)C(=O)O)[C@H](C)O)cc1
Incoming: Higher Relative Kd between I and II ? Give the chosen item's label as your response.
Outgoing: I
